The entries below come with measured MIC values attached.
system: Staphylococcus aureus; experiment: Antibacterial activity against Staphylococcus aureus SA2552; format: functional

| structureString | quantityUnit | MIC |
| --- | --- | --- |
| COc1c(N2CC[C@@H]([C@H](C)N)C2)c(F)cc2c(=O)c(C(=O)O)cn(C3CC3)c12 | µg/mL | 0.008 |
| COc1c(N2CC[C@@H]([C@@H](N)CC#N)C2)ccc2c(=O)c(C(=O)O)cn(C3CC3)c12 | µg/mL | 0.06 |
| O=C(O)c1cn(C2CC2)c2cc(N3CCNCC3)c(F)cc2c1=O | µg/mL | 1 |
| COc1c(N2CC[C@@H]([C@H](C)N)C2)ccc2c(=O)c(C(=O)O)cn(C3CC3)c12 | µg/mL | 0.03 |

###

target: hERG (KCNH2) (Homo sapiens, UniProt Q12809); assay: Displacement of [3H]dofetilide from human ERG at 300 uM; conditions: probe [3H]dofetilide
Sequence (Q12809 whole entry): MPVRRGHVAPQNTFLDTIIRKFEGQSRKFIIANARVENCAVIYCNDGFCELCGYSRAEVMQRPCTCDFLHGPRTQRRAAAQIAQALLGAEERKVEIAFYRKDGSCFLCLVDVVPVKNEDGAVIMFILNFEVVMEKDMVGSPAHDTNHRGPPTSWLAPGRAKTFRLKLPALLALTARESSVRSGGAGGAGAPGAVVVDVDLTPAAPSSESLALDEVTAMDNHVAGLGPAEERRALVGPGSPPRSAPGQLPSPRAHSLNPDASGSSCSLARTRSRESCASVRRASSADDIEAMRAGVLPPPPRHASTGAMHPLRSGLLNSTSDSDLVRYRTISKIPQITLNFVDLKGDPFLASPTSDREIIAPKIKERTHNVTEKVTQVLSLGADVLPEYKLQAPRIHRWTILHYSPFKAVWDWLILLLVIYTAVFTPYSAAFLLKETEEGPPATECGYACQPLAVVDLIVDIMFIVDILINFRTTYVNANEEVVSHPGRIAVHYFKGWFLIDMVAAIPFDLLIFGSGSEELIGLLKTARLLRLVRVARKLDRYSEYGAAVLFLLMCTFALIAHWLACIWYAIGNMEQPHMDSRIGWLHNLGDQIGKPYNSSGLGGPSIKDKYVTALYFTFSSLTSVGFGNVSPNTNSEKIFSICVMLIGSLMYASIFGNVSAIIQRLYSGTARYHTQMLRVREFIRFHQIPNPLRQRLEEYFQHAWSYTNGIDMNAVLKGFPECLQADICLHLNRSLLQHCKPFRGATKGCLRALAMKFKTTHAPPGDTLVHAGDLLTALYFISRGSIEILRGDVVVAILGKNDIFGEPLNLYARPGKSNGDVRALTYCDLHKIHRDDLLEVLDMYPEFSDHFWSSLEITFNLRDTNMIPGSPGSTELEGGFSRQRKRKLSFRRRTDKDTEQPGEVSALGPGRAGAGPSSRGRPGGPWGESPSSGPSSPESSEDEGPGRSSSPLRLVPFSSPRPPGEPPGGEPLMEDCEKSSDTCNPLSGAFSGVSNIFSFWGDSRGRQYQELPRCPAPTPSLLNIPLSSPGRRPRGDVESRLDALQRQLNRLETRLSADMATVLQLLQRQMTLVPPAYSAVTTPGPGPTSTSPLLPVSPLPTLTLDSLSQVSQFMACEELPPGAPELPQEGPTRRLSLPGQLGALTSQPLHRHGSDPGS

| compound | inhibition at 300 µM (%) |
| --- | --- |
| CC1COc2c(N3CC[C@@H]([C@H](C)N)C3)c(F)cc3c(=O)c(C(=O)O)cn1c23 (some centres undefined) | 35 |
| CC1COc2c(N3CC[C@@H]([C@H](C)NCCC#N)C3)c(F)cc3c(=O)c(C(=O)O)cn1c23 (some centres undefined) | 10 |
| Cc1c(N2CC(C)(CNCCC#N)C2)c(F)cc2c(=O)c(C(=O)O)cn(C3CC3)c12 | 18 |
| CN[C@@H](CC#N)[C@@H]1CCN(c2c(F)cc3c(=O)c(C(=O)O)cn4c3c2OCC4C)C1 (some centres undefined) | 19 |

###

tested on: Haemophilus influenzae; assay: Antibacterial activity against Haemophilus influenzae HI3542; type: functional; conditions: HI-3542
The entries below come with measured MIC values attached.

| compound | testedSystem | MIC, µg/mL |
| --- | --- | --- |
| Cc1c(N2CC(C)(CNCCC#N)C2)c(F)cc2c(=O)c(C(=O)O)cn(C3CC3)c12 | Haemophilus influenzae | 0.06 |
| CC1COc2c(N3CC[C@@H]([C@H](C)N)C3)c(F)cc3c(=O)c(C(=O)O)cn1c23 (stereo not given in full) | Haemophilus influenzae | 0.008 |
| COc1c(N2CC[C@@H]([C@@H](N)CC#N)C2)c(F)cc2c(=O)c(C(=O)O)cn(C3CC3)c12 | Haemophilus influenzae | 0.008 |
| CCC1(CN)CN(c2c(F)cc3c(=O)c(C(=O)O)cn(C4CC4)c3c2C)C1 | Haemophilus influenzae | 0.015 |
| CN[C@@H](CC#N)[C@@H]1CCN(c2c(F)cc3c(=O)c(C(=O)O)cn4c3c2OCC4C)C1 (stereo not given in full) | Haemophilus influenzae | 0.03 |

###

experiment: Half life in rat at 1 mg/kg, iv; assay type: ADME, organism-based; set-up: dose 1 mg/kg, route intravenous; conditions: in vivo
The entries below come with measured half-life values attached.
metric: half-life (h)

| structureString | dataValue |
| --- | --- |
| COc1c(N2CC[C@@H]([C@@H](N)CC#N)C2)ccc2c(=O)c(C(=O)O)cn(C3CC3)c12 | 1.8 |
| COc1c(N2CC[C@@H]([C@H](C)NCCC#N)C2)c(F)cc2c(=O)c(C(=O)O)cn(C3CC3)c12 | 2.7 |
| Cc1c(N2CC(C)(CN)C2)c(F)cc2c(=O)c(C(=O)O)cn(C3CC3)c12 | 1.3 |
| CCC1(CNCCC#N)CN(c2c(F)cc3c(=O)c(C(=O)O)cn(C4CC4)c3c2C)C1 | 1.4 |
| CN[C@@H](CC#N)[C@@H]1CCN(c2c(F)cc3c(=O)c(C(=O)O)cn(C4CC4)c3c2OC)C1 | 2.4 |

Taken from ChEMBL document CHEMBL1144619.
